Test system: amidase
Test: Substrate specificity of the isolated amidase (hydrolysis assay)
Assay type: biochemical, Pseudonocardia thermophila
Details: Aromatic amides; 1 h at 70° C.
Procedure: To carry out the hydrolysis assay, where not mentioned otherwise, use was made of a 5 mM benzamide solution in 500 μl of a 60 mM K-Na phosphate buffer, pH 7.2. The enzymatic reaction proceeded for one hour at 70° C. with addition of 5 μg of the enzyme. […] The substrate specificity of the amidase was tested at three different temperatures taking into account the substrate used in each case. […] The enzymatic activity was then determined as described above. […]
Label rule, in plain words: Specific activity of 8 µmol/min/mg and up is 1 (yes), under 8 µmol/min/mg is 0 (no).

The following compounds have reported results that may help.
NC(=O)c1ccccc1N [2-aminobenzamide] :: 0 (no)
CC(C(N)=O)c1ccccc1 (stereo not drawn) [2-phenylpropionamide] :: 1 (yes)
NC(=O)Cc1c[nH]c2ccccc12 [3-indolylacetamide] :: 0 (no)

Reported Specific activity reaches at least 8 µmol/min/mg for NC(=O)c1ccccc1 [benzamide] ?
1 (yes)

Please do the same for NC(=O)c1ccccc1O [o-hydroxybenzamide] as well.
0 (no)

Next record, please: NC(=O)c1ccc(N)cc1 [4-aminobenzamide]
0 (no)
